Test system: S. pneumoniae SV1 SP-3
Test: in vitro antibacterial activity (MIC), S. pneumoniae
Format: cell-based
Details: Streptococcus pneumoniae, SV1SP3, strain SV1 SP-3, lowest concentration preventing macroscopically visible growth
readout-type: MIC (µg/mL)
Field format: number, assumed µg/mL, no unit text.

Guide cases for MIC, answers given:
COC(=O)NC[C@H]1CN(c2ccc3c(c2)CCOC(=O)N3C)C(=O)O1 ... 8
CC(=O)NC[C@H]1CN(c2cc(F)c3c(c2)CCOC(=O)N3C)C(=O)O1 ... 4
CC(=O)NC[C@H]1CN(c2ccc3c(c2)COC(=O)N3C)C(=O)O1 ... 2
CN1C(=O)OCCc2cc(N3C[C@H](C(N)=O)OC3=O)ccc21 ... 32
CN1C(=O)OCc2cc(N3C[C@H](Cn4ccnn4)OC3=O)ccc21 ... 16

# ---- query molecule ----
[ask] Which MIC value belongs to `COC(=O)NC[C@H]1CN(c2cc(F)c3c(c2)COC(=O)N3C)C(=O)O1` ?
[reply] 4

The measured values listed here are drawn from patent US20090318431A1.
